subjectOfTest: T1, IL-4 receptor protein immobilised on carboxymethyl dextran chip (SPR) (Homo sapiens (Human), UniProt P24394 26-232)
T1 construct: Soluble protein coupled to the chip by EDC/NHS
T1 sequence: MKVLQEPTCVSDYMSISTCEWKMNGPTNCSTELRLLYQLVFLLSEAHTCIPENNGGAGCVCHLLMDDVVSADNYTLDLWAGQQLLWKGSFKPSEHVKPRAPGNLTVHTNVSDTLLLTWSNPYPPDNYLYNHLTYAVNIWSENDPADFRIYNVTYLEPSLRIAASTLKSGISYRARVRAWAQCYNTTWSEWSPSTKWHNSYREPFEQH
procedureDetails: SPR, IL-4 receptor immobilised, equilibrium fit
readout: Kd (nM)
Your answer should be a plain number; it is taken to be in nM.

In the examples that follow, each entry is paired with its recorded Kd.
binder	testResult
FTL-GG-AP1L: ferritin having AP1L inserted in GG cassette (human ferritin light chain, fourth loop) (designed binder, One monomer is given; it assembles into a 24-mer ferritin cage., pET28a(+) expression with Ni-NTA purification (His tag); Cage-forming; also called 157cysAP1-PBNC; not shown: His tag from the pET28a(+) vector (Ni-NTA purification, anti-His probe)) MSSQIRQNYSTDVEAAVNSLVNLYLQASYTYLSLGFYFDRDDVALEGVSHFFRELAEEKREGYERLLKMQNQRGGRALFQDIKKPAEDEWGKTPDAMKAAMALEKKLNQALLDLHALGSARTDPHLCDFLETHFLDEEVKLIKKMGDHLTNLHRGSCRKRLDRNCGGPEAGLGEYLFERLTLKHD	25.9
FTL-GP-AP1L: ferritin having AP1L inserted in GP cassette (human ferritin light chain, fourth loop) (designed binder, One monomer is given; it assembles into a 24-mer ferritin cage., pET28a(+) expression with Ni-NTA purification (His tag); Cage-forming; not shown: His tag from the pET28a(+) vector (Ni-NTA purification, anti-His probe)) MSSQIRQNYSTDVEAAVNSLVNLYLQASYTYLSLGFYFDRDDVALEGVSHFFRELAEEKREGYERLLKMQNQRGGRALFQDIKKPAEDEWGKTPDAMKAAMALEKKLNQALLDLHALGSARTDPHLCDFLETHFLDEEVKLIKKMGDHLTNLHRLGSCRKRLDRNCGPEAGLGEYLFERLTLKHD	9.9
FTL-GG-AP1S: ferritin having AP1S inserted in GG cassette (human ferritin light chain, fourth loop) (designed binder, One monomer is given; it assembles into a 24-mer ferritin cage., It forms a ferritin-like cage (24-mer); also called FTL-AP1; not shown: His tag from the pET28a(+) vector (Ni-NTA purification, anti-His probe)) MSSQIRQNYSTDVEAAVNSLVNLYLQASYTYLSLGFYFDRDDVALEGVSHFFRELAEEKREGYERLLKMQNQRGGRALFQDIKKPAEDEWGKTPDAMKAAMALEKKLNQALLDLHALGSARTDPHLCDFLETHFLDEEVKLIKKMGDHLTNLHRGSRKRLDRNGGPEAGLGEYLFERLTLKHD	1.19

// Kd lookup, key: FTL-GP-AP1S: ferritin having AP1S inserted in GP cassette (human ferritin light chain, fourth loop) (designed binder, One monomer is given; it assembles into a 24-mer ferritin cage., pET28a(+) expression with Ni-NTA purification (His tag); Cage-forming; not shown: His tag from the pET28a(+) vector (Ni-NTA purification, anti-His probe)) MSSQIRQNYSTDVEAAVNSLVNLYLQASYTYLSLGFYFDRDDVALEGVSHFFRELAEEKREGYERLLKMQNQRGGRALFQDIKKPAEDEWGKTPDAMKAAMALEKKLNQALLDLHALGSARTDPHLCDFLETHFLDEEVKLIKKMGDHLTNLHRLGSRKRLDRNGPEAGLGEYLFERLTLKHD 4.29
